Test: Determination of S from retention time shift Δ relative to P3 at two gradient slopes, nano-RP-HPLC MS of spiked tryptic digest
Assay type: physicochemical
Details: experimental S, LC-MS runs of model peptide mixture, formic acid
Exercise: state measured Slope (experimental) for each of the sequences provided.
Write the number on its own, no unit after it.

Would you mind telling me what Slope (experimental) value was observed for `DDSPDLPK` ? 30.875

Try `DSADGFLKIPSK` next. 30.089

Try `EDGSDPPSGDFLTEGGGVR` next. 30.812

Try `VTALYEGFTVQNEANK` next. 30.77
